target: FGFR1 (Homo sapiens); construct: made in house; host or cells: E. coli derived from BL21, infected with T7 phage; assay: Kinase binding assay (kinase-tagged T7 phage, affinity beads, qPCR readout), FGFR1; settings: FGFR binding data
Sequence (P11362 22-822): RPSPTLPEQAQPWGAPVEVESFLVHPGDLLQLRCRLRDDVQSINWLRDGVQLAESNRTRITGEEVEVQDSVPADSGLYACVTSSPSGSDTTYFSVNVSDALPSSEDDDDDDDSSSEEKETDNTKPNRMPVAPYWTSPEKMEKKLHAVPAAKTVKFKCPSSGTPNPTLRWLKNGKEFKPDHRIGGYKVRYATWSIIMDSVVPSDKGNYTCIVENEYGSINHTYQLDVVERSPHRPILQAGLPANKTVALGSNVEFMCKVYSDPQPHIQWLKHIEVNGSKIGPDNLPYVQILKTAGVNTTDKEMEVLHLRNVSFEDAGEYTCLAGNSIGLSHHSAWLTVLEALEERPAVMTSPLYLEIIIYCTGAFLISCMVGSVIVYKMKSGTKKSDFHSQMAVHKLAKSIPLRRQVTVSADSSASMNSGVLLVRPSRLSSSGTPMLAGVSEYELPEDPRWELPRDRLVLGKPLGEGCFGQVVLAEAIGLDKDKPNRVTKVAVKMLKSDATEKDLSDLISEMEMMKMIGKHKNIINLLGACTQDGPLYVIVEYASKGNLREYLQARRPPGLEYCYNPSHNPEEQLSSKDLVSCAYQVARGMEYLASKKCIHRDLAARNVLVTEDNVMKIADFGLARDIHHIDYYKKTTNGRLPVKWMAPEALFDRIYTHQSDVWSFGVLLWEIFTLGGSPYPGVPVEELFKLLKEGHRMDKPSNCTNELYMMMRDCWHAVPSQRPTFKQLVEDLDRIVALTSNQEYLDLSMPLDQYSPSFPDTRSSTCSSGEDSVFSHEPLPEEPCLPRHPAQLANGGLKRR
observed_property: Kd

// worked examples, Kd included
smiles_string=C=CC(=O)Nc1ccc2c(c1)c(C)cn2-c1nc(Nc2cnn(C)c2)ncc1F observed_property=Kd value_reported="0.1 to 100 nM"
smiles_string=C#CC(=O)Nc1ccc2c(-c3nc(Nc4cnn(CCO)c4)ncc3F)cn(C)c2c1 observed_property=Kd value_reported="0.1 to 100 nM"
smiles_string=C=CC(=O)Nc1ccc2c(c1)c(C)cn2-c1nc(Nc2cn(CCOC)nc2C)ncc1F observed_property=Kd value_reported="0.1 to 100 nM"

Dear colleague, I am looking for the recorded Kd of the following compound: "C=CC(=O)Nc1ccc2c(c1)c(C)cn2-c1nc(Nc2cnc(C)nc2C)ncc1F"
250 to 1000 nM

----------
The entries below come with measured Kd values attached.
target: FGFR2 (Homo sapiens, UniProt P21802); construct: made in house; host or cells: E. coli derived from BL21, infected with T7 phage; assay: Kinase binding assay (kinase-tagged T7 phage, affinity beads, qPCR readout), FGFR2; settings: FGFR binding data
Sequence (P21802 22-821): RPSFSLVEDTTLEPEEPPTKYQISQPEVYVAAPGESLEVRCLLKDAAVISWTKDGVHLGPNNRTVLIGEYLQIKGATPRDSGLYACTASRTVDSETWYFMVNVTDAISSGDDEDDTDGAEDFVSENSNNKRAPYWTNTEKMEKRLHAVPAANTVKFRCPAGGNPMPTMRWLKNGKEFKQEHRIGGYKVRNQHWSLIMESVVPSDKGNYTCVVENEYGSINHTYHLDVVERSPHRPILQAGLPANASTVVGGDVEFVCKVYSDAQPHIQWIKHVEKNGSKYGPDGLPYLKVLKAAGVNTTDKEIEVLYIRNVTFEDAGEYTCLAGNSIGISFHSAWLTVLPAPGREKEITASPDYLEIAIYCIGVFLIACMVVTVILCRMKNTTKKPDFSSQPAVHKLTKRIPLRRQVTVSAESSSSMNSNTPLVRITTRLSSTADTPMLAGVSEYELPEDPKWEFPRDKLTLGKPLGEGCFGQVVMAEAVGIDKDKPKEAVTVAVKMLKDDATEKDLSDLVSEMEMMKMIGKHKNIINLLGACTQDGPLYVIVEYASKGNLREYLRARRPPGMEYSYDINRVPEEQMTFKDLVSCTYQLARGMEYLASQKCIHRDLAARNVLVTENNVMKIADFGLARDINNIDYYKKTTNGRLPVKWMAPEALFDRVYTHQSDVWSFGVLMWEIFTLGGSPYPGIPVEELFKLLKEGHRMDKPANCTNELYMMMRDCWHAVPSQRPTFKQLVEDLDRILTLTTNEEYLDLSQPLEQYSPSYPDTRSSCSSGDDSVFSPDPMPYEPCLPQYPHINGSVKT

// worked examples, Kd included
smiles_string=C=CC(=O)Nc1ccc2c(-c3nc(Nc4ccc(N5CCOCC5)cc4)ncc3Cl)cn(C)c2c1 measurement_target="FGFR2 (Homo sapiens, UniProt P21802)" value_reported="0.1 to 100 nM"
smiles_string=Cc1cn(-c2nc(Nc3cnn(C[C@@H](C)O)c3)ncc2F)c2ncc(NC(=O)/C=C/CN3CCOCC3)cc12 measurement_target="FGFR2 (Homo sapiens, UniProt P21802)" value_reported="250 to 1000 nM"
smiles_string=Cc1nn(C)cc1Nc1ncc(Cl)c(-n2cc(C)c3cc(NC(=O)/C=C/CN(C)C)cnc32)n1 measurement_target="FGFR2 (Homo sapiens, UniProt P21802)" value_reported="0.1 to 100 nM"

Dear colleague, I am looking for the recorded Kd of the following molecule: "C=CC(=O)Nc1ccc2c(-c3ccnc(Nc4cnn(CC5CC5)c4)n3)cn(C)c2c1"
0.1 to 100 nM

----------
target: FGFR3 (V555M) (Homo sapiens, UniProt P22607, V555M); construct: made in house; host or cells: E. coli derived from BL21, infected with T7 phage; test: Kinase binding assay (kinase-tagged T7 phage, affinity beads, qPCR readout), FGFR3 (V555M); details: FGFR binding data
Sequence (P22607 23-806 V555M): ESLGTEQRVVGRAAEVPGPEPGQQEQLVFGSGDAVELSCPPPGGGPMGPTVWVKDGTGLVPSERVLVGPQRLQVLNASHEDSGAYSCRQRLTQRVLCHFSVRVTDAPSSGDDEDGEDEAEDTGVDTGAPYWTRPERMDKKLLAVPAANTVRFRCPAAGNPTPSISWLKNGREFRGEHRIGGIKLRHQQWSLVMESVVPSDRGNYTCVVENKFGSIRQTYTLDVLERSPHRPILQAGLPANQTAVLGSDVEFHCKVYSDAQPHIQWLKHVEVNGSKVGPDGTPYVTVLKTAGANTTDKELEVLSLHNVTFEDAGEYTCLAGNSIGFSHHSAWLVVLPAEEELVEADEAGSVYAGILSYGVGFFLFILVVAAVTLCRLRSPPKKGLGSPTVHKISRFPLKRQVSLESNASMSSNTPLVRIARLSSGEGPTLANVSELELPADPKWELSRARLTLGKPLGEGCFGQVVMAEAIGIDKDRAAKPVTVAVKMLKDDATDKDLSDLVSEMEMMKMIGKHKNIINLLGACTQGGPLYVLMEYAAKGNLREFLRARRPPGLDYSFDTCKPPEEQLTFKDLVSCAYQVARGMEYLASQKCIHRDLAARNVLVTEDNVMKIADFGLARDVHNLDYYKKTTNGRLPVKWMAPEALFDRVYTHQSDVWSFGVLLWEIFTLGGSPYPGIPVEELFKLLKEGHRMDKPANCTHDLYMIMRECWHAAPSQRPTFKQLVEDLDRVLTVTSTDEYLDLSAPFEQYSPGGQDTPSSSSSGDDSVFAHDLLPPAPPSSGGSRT
The entries below come with measured Kd values attached.

// worked examples, Kd included
smiles_string=C=CC(=O)Nc1ccc2c(c1)c(C)cn2-c1nc(Nc2cnn(CCOC(C)C)c2)ncc1F observed_property=Kd value_reported="0.1 to 100 nM"
smiles_string=C=CC(=O)Nc1ccc2c(c1)c(C)cn2-c1nc(Nc2ccc(CN3CCOCC3)cc2)ncc1Cl observed_property=Kd value_reported="0.1 to 100 nM"
smiles_string=C=CC(=O)Nc1ccc2c(c1)c(C)cn2-c1nc(Nc2cn(C)nc2C)ncc1C observed_property=Kd value_reported="0.1 to 100 nM"
smiles_string=C=CC(=O)Nc1ccc2c(c1)c(C)cn2-c1nc(Nc2cnn(C)c2)ncc1C#N observed_property=Kd value_reported="0.1 to 100 nM"
smiles_string=C=CC(=O)Nc1ccc2c(c1)c(C)cn2-c1nc(Nc2ccc(CN3CCN(C)CC3)cc2)ncc1Cl observed_property=Kd value_reported="0.1 to 100 nM"

Dear colleague, I am looking for the recorded Kd of the following molecule: "C=CC(=O)Nc1ccc2c(-c3nc(Nc4ccc(N5CCOCC5)cc4)ncc3F)cn(C)c2c1"
0.1 to 100 nM

Dear colleague, I am looking for the recorded Kd of the following molecule: "C=CC(=O)Nc1ccc2c(ccn2-c2nc(Nc3ccc(N4CCOCC4)cc3)ncc2Cl)c1"
0.1 to 100 nM

Dear colleague, I am looking for the recorded Kd of the following molecule: "C=CC(=O)Nc1ccc2c(c1)c(C)cn2-c1nc(Nc2cnn(C)c2C)ncc1C"
0.1 to 100 nM
